biological target: Recombinant human TPH1 (MBP tagged) (Homo sapiens); construct: cloning full length human TPH1 cDNA in to a bacterial pMAL-c5E expression vector; made in house; host or cells: E. coli BL21 (DE3); assay: TPH1 in vitro inhibition assay (kinetic fluorescence); type: biochemical; settings: read-out: TPH1 Range (TPH1 inhibition IC50)
pIC50: −log10 of the molar value.
Test readout: pIC50

Recorded pIC50, per entry:
[[record]]
compound = "CC(C)Oc1cccc(-c2cc(Cl)ccc2[C@@H](Oc2cc(N3CCC4(CC3)CN[C@H](C(=O)O)C4)nc(N)n2)C(F)(F)F)c1 [Example 34ag]"
experimental_target = "Recombinant human TPH1 (MBP tagged) (Homo sapiens)"
measured = "> 7.30"

[[record]]
compound = "CC(C)Oc1ccc(-c2ccc([C@@H](Oc3cc(N4CCC5(CC4)CN[C@H](C(=O)O)C5)nc(N)n3)C(F)(F)F)c(N3CCOCC3)c2)cc1 [Example 36f]"
experimental_target = "Recombinant human TPH1 (MBP tagged) (Homo sapiens)"
measured = "6.52 to 7.30"

[[record]]
compound = "Nc1nc(O[C@H](c2ccc(-c3ccc4ccc(=O)oc4c3)cc2)C(F)(F)F)cc(N2CCC3(CC2)CN[C@H](C(=O)O)C3)n1 [Example 55ae]"
experimental_target = "Recombinant human TPH1 (MBP tagged) (Homo sapiens)"
measured = "5.52 to 6.52"

[[record]]
compound = "COc1ccc(-c2ccc([C@@H](Oc3cc(N4CCC5(CC4)CN[C@H](C(=O)O)C5)nc(N)n3)C(F)(F)F)c(-n3ccc(C)n3)c2)cc1F"
experimental_target = "Recombinant human TPH1 (MBP tagged) (Homo sapiens)"
measured = "> 7.30"

[[record]]
compound = "Nc1nc(O[C@H](c2ccc(-c3ccccc3CO)cc2)C(F)(F)F)cc(N2CCC3(CC2)CN[C@H](C(=O)O)C3)n1 [Example 55bu]"
experimental_target = "Recombinant human TPH1 (MBP tagged) (Homo sapiens)"
measured = "5.52 to 6.52"

[[record]]
compound = "Cc1ccn(-c2cc(-c3ccc(CN)cc3)ccc2[C@@H](Oc2cc(N3CCC4(CC3)CN[C@H](C(=O)O)C4)nc(N)n2)C(F)(F)F)n1"
experimental_target = "Recombinant human TPH1 (MBP tagged) (Homo sapiens)"
measured = "> 7.30"

[[record]]
compound = "Nc1nc(O[C@H](c2ccc(-c3cccc(F)c3)cc2)C(F)(F)F)cc(N2CCC3(CC2)CN[C@H](C(=O)O)C3)n1 [Example 55am]"
experimental_target = "Recombinant human TPH1 (MBP tagged) (Homo sapiens)"
measured = "6.52 to 7.30"

[[record]]
compound = "Nc1cccc(-c2cc(Cl)ccc2[C@@H](Oc2cc(N3CCC4(CC3)CNC(C(=O)O)C4)nc(N)n2)C(F)(F)F)c1 (stereo partly drawn) [Example 34f]"
experimental_target = "Recombinant human TPH1 (MBP tagged) (Homo sapiens)"
measured = "6.52 to 7.30"

[[record]]
compound = "Nc1nc(O[C@H](c2ccc3c(c2)CNCN3)C(F)(F)F)cc(N2CCC3(CC2)CN[C@H](C(=O)O)C3)n1"
experimental_target = "Recombinant human TPH1 (MBP tagged) (Homo sapiens)"
measured = "6.52 to 7.30"

[[record]]
compound = "CN1CCN(c2cccc(-c3cc(Cl)ccc3[C@@H](Oc3cc(N4CCC5(CC4)CN[C@H](C(=O)O)C5)nc(N)n3)C(F)(F)F)c2)C1=O [Example 34p]"
experimental_target = "Recombinant human TPH1 (MBP tagged) (Homo sapiens)"
measured = "6.52 to 7.30"


**Query** Form entry - test system: Recombinant human TPH1 (MBP tagged) (Homo sapiens); read-out: pIC50; compound: CCOc1ccc(-c2cc(Cl)ccc2[C@@H](Oc2cc(N3CCC4(CC3)CN[C@H](C(=O)O)C4)nc(N)n2)C(F)(F)F)cc1F [Example 34az]
**Result** 5.52 to 6.52

**Query** Cc1ccc(-c2ccc([C@@H](Oc3cc(N4CCC5(CC4)CN[C@H](C(=O)O)C5)nc(N)n3)C(F)(F)F)c(-c3ccccc3)c2)cc1C [Example 54f] , same question.
**Result** > 7.30

###

A collection of molecules and their measured pIC50
Target: Recombinant human TPH1 (MBP tagged) (Homo sapiens, UniProt P17752)
Construct: cloning full length human TPH1 cDNA in to a bacterial pMAL-c5E expression vector; made in house; host or cells: E. coli BL21 (DE3)
Sequence (P17752 1-444): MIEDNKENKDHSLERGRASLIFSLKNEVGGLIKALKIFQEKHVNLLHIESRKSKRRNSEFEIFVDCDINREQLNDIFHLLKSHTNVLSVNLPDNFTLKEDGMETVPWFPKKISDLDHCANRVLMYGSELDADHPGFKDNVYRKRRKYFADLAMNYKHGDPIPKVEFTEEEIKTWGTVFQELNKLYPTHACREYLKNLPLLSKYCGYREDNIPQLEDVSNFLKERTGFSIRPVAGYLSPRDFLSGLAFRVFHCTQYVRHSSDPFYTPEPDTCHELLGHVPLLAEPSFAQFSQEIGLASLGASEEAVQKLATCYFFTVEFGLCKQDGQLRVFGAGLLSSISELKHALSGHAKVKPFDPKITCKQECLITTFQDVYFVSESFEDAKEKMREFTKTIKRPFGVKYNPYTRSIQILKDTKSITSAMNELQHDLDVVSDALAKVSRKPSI
Experiment: TPH1 in vitro inhibition assay (kinetic fluorescence)
Type: biochemical
Conditions: read-out: TPH1 Range (TPH1 inhibition IC50)
pIC50: −log10 of the molar value.

Recorded pIC50, per entry:
[[record]]
molecule = "Nc1nc(O[C@H](c2ccc(-c3ccc4[nH]c(=O)ccc4c3)cc2)C(F)(F)F)cc(N2CCC3(CC2)CN[C@H](C(=O)O)C3)n1 [Example 55t]"
measured = "6.52 to 7.30"

[[record]]
molecule = "Cc1ccn(-c2cc(C(=O)O)ccc2[C@@H](Oc2cc(N3CCC4(CC3)CN[C@H](C(=O)O)C4)nc(N)n2)C(F)(F)F)n1"
measured = "5.52 to 6.52"

[[record]]
molecule = "NCc1cccc(-c2cc(Cl)ccc2[C@@H](Oc2cc(N3CCC4(CC3)CN[C@H](C(=O)O)C4)nc(N)n2)C(F)(F)F)c1 [Example 34z]"
measured = "> 7.30"

[[record]]
molecule = "CCCc1ccc([C@@H](Oc2cc(N3CCC4(CC3)CN[C@H](C(=O)O)C4)nc(N)n2)C(F)(F)F)c(-n2ccc(C)n2)c1 [Example 12b]"
measured = "> 7.30"

[[record]]
molecule = "Cc1cc(-c2ccc([C@@H](Oc3cc(N4CCC5(CC4)CN[C@H](C(=O)O)C5)nc(N)n3)C(F)(F)F)c(-n3ccc(C)n3)c2)cc(C(C)(C)C)c1"
measured = "6.52 to 7.30"


// next entry
**Query** For the molecule shown here, Cc1cccc(-c2ccc([C@@H](Oc3cc(N4CCC5(CC4)CN[C@H](C(=O)O)C5)nc(N)n3)C(F)(F)F)cc2)c1C [Example 55cn] , give the reported pIC50.
**Result** 5.52 to 6.52

###

Target: Recombinant human TPH1 (MBP tagged) (Homo sapiens)
Construct: cloning full length human TPH1 cDNA in to a bacterial pMAL-c5E expression vector; made in house; host or cells: E. coli BL21 (DE3)
Assay: TPH1 in vitro inhibition assay (kinetic fluorescence)
Type: biochemical
Settings: read-out: TPH1 Range (TPH1 inhibition IC50)
Method: Recombinant human TPH1 (rTPH1 GenBank™ accession no. NP_004179) was expressed by cloning full length human TPH1 cDNA in to a bacterial pMAL-c5E expression vector to produce maltose-binding protein (MBP) TPH1 fusion proteins. […] TPH1 activities were measured in an assay containing 200 mM ammonium sulfate, 7 mM DTT, 50 μg/mL catalase, 25 μM ammonium iron sulfate, 50 mM MES, pH 7.1. […] Fluorescence reads are recorded in kinetic mode for 300 seconds (5 minutes). […]
pIC50: −log10 of the molar value.
Test readout: pIC50

Recorded pIC50, per entry:
[[record]]
compound = "Nc1nc(NCc2c(Oc3ccccc3)cccc2N2CCCCC2)cc(N2CCC3(CC2)CN[C@H](C(=O)O)C3)n1 [Example 41b]"
test_readout = "pIC50"
measured = "5.52 to 6.52"

[[record]]
compound = "CNC(=O)c1cccc(-c2cc(Cl)ccc2[C@@H](Oc2cc(N3CCC4(CC3)CN[C@H](C(=O)O)C4)nc(N)n2)C(F)(F)F)c1 [Example 34cm]"
test_readout = "pIC50"
measured = "6.52 to 7.30"

[[record]]
compound = "Cc1ccn(-c2cc(-c3ccc(S(C)(=O)=O)cc3)ccc2[C@@H](Oc2cc(N3CCC4(CC3)CN[C@H](C(=O)O)C4)nc(C)n2)C(F)(F)F)n1 [Example 29b]"
test_readout = "pIC50"
measured = "> 7.30"

[[record]]
compound = "Cc1ccn(-c2cc(-c3cccc(OC(F)(F)F)c3)ccc2[C@@H](Oc2cc(N3CCC4(CC3)CN[C@H](C(=O)O)C4)nc(N)n2)C(F)(F)F)n1"
test_readout = "pIC50"
measured = "> 7.30"


**Query** For the compound shown here, Nc1nc(O[C@H](c2ccc(-c3ccncc3)cc2)C(F)(F)F)cc(N2CCC3(CC2)CN[C@H](C(=O)O)C3)n1 [Example 55ax] , give the reported pIC50.
**Result** 6.52 to 7.30

**Query** COc1cc(-c2ccc([C@@H](Oc3cc(N4CCC5(CC4)CN[C@H](C(=O)O)C5)nc(N)n3)C(F)(F)F)cc2)ccc1C [Example 55n] , same question.
**Result** 5.52 to 6.52
